Where do these numbers come from? They come from PubChem BioAssay (NCI).

System: DU-145 prostate
Test: NCI tumour cell line growth inhibition, 48 h
observable: TGI

Task item: Requested field: TGI. Item: COc1c(/C=C/C(C)(C)O)cc(C2CC(=O)c3c(O)cc(O)cc3O2)cc1CC=C(C)C (stereo unspecified)
Reply: 17.4 µM

Task item: Requested field: TGI. Item: COC(=O)C1Cc2cc3c(cc2C1=O)CCCC3 (stereo unspecified)
Reply: > 100 µM

Task item: Requested field: TGI. Item: COc1cc2c(c(OC)c1OC)-c1ncc3c(OC)c(OC)c(OC)cc3c1C2
Reply: > 100 µM

Task item: Requested field: TGI. Item: COc1ccc(-n2[nH]nc(C(N)=O)c2=O)cc1
Reply: > 100 µM

Task item: Requested field: TGI. Item: Nc1[nH]nc(Nc2ccc(Cl)cc2)c1P(=O)(c1ccccc1)c1ccccc1
Reply: 86.5 µM

Task item: Requested field: TGI. Item: CC(C)(C)OC(=O)NC1CC2(C=C(Br)C(=O)C(Br)=C2)OC1=O (stereo unspecified)
Reply: 26.4 µM

Task item: Requested field: TGI. Item: CS(=O)(=O)c1nc(-c2cc3c(c(S(C)(=O)=O)n2)CCCC3)cc2c1CCCCC2
Reply: > 100 µM

Task item: Requested field: TGI. Item: CC[C@H](Nc1ncnc2nc[nH]c12)c1nc2cccc(F)c2c(=O)n1-c1ccccc1
Reply: > 100 µM

Task item: Requested field: TGI. Item: CSc1ccc(-c2cc(-c3nc4ccccc4[nH]3)no2)cc1
Reply: > 100 µM

Task item: Requested field: TGI. Item: Clc1ccc(C(c2ccccc2Cl)C(Cl)Cl)cc1 (stereo unspecified)
Reply: 34.3 µM

Further cases:
Task item: Requested field: TGI. Item: CC(NC(=O)NC(C)(C)C)NC(=O)C(N)CC(=O)O (stereo unspecified)
Reply: > 100 µM
